Target entity: T1, Nipah virus attachment (receptor-binding) glycoprotein (GP), wild type (Nipah virus; strain of the assayed …, UniProt Q9IH62)
T1 construct: source: HEK 293-F FreeStyle, transiently transfected, purified from supernatant (Ni-NTA)
Method: ELISA
Measurement setup: both partners purified
Threshold check on Kd: strictly below 0.1 nM is fulfilled; on or above 0.1 nM is not fulfilled.

State whether 0.1 nM exceeds Kd recorded for m102.4 VH G56A (antibody, V domains shown) VH: EVQVIQSGADVKKPGSSVKVSCKSSGGTFSKYAINWVRQAPGQGLEWMGGIIPILAIANYAQKFQGRVTITTDESTSTAYMELSSLRSEDTAVYYCARGWGREQLAPHPSQYYYYYYGMDVWGQGTTVTVSS VL: EIVMTQSPGTLSLAPGERATLSCWASQSVRNNYLAWYQQKPGQAPRLVIYNGSTRATGIPDRFSGSGSGTDFTLTISRLDPEDFAVYYCQQYGNSRRVTFGGGTKVEIK .
fulfilled

Next:
Would you kindly verify if Kd of m102.4 VH Y113A (antibody, V domains shown) VH: EVQVIQSGADVKKPGSSVKVSCKSSGGTFSKYAINWVRQAPGQGLEWMGGIIPILGIANYAQKFQGRVTITTDESTSTAYMELSSLRSEDTAVYYCARGWGREQLAPHPSQYAYYYYGMDVWGQGTTVTVSS VL: EIVMTQSPGTLSLAPGERATLSCWASQSVRNNYLAWYQQKPGQAPRLVIYNGSTRATGIPDRFSGSGSGTDFTLTISRLDPEDFAVYYCQQYGNSRRVTFGGGTKVEIK is strictly less than 0.1 nM?
not fulfilled

State whether 0.1 nM exceeds Kd recorded for m102.4 VH E103A (antibody, V domains shown) VH: EVQVIQSGADVKKPGSSVKVSCKSSGGTFSKYAINWVRQAPGQGLEWMGGIIPILGIANYAQKFQGRVTITTDESTSTAYMELSSLRSEDTAVYYCARGWGRAQLAPHPSQYYYYYYGMDVWGQGTTVTVSS VL: EIVMTQSPGTLSLAPGERATLSCWASQSVRNNYLAWYQQKPGQAPRLVIYNGSTRATGIPDRFSGSGSGTDFTLTISRLDPEDFAVYYCQQYGNSRRVTFGGGTKVEIK .
not fulfilled

Does the reported Kd of the following binder sit strictly below 0.1 nM? m102.4 VL R30A (antibody, V domains shown, also called LC:R30 to alanine) VH: EVQVIQSGADVKKPGSSVKVSCKSSGGTFSKYAINWVRQAPGQGLEWMGGIIPILGIANYAQKFQGRVTITTDESTSTAYMELSSLRSEDTAVYYCARGWGREQLAPHPSQYYYYYYGMDVWGQGTTVTVSS VL: EIVMTQSPGTLSLAPGERATLSCWASQSVANNYLAWYQQKPGQAPRLVIYNGSTRATGIPDRFSGSGSGTDFTLTISRLDPEDFAVYYCQQYGNSRRVTFGGGTKVEIK
not fulfilled

Given m102.4 VH S110A (antibody, V domains shown) VH: EVQVIQSGADVKKPGSSVKVSCKSSGGTFSKYAINWVRQAPGQGLEWMGGIIPILGIANYAQKFQGRVTITTDESTSTAYMELSSLRSEDTAVYYCARGWGREQLAPHPAQYYYYYYGMDVWGQGTTVTVSS VL: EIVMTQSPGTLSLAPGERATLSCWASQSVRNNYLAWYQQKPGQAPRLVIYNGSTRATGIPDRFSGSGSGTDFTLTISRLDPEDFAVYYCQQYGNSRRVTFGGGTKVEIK , is recorded Kd strictly lower than 0.1 nM?
not fulfilled

Decide: Kd of m102.4 VH R102A (antibody, V domains shown) VH: EVQVIQSGADVKKPGSSVKVSCKSSGGTFSKYAINWVRQAPGQGLEWMGGIIPILGIANYAQKFQGRVTITTDESTSTAYMELSSLRSEDTAVYYCARGWGAEQLAPHPSQYYYYYYGMDVWGQGTTVTVSS VL: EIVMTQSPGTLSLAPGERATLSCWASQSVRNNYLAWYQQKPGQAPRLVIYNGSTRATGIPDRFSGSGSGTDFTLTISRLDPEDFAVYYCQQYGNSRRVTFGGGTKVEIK strictly below 0.1 nM?
fulfilled

I wonder whether m102.4 VH P107A (antibody, V domains shown) VH: EVQVIQSGADVKKPGSSVKVSCKSSGGTFSKYAINWVRQAPGQGLEWMGGIIPILGIANYAQKFQGRVTITTDESTSTAYMELSSLRSEDTAVYYCARGWGREQLAAHPSQYYYYYYGMDVWGQGTTVTVSS VL: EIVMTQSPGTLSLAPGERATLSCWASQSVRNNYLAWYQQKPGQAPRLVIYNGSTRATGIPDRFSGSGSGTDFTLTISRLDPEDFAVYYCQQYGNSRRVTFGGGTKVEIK has Kd below 0.1 nM. Can you tell?
fulfilled

Entry source: paper PMC7588459
